target: CYP2C9 (Homo sapiens, UniProt P11712); construct: pre-incubation of the human liver microsomes with the test compound; tissue Corning; host or cells: human liver microsomes; assay: CYP inhibition / time-dependent inhibition, CYP2C9_Diclofenac; format: in vitro ADME; details: role: inhibitor; (+)NADPH pre-incubation; substrate diclofenac; read-out: IC50 (+)NADPH CYP2C9_Diclofenac
Sequence (P11712 whole entry): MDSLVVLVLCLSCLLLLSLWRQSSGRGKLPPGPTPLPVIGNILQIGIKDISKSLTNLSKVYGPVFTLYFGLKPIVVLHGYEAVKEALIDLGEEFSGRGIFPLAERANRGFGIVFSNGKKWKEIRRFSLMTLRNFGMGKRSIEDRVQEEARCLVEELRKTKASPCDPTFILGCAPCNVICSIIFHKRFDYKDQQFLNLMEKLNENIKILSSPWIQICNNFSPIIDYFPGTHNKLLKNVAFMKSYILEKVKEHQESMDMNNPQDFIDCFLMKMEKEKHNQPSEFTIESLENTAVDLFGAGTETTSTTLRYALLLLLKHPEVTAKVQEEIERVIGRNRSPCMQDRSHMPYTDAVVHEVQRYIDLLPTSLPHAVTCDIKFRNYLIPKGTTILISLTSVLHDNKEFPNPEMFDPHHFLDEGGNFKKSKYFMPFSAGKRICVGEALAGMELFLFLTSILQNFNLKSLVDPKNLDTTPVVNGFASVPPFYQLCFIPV
Property measured: IC50

Can you look up the measured IC50 of O=C(Cc1cncc(-n2cc(Cl)c3cc(Cl)cc(Cl)c32)c1)N[C@@H]1COC[C@H]1O for me? 13 µM

* * *

Biological target: CYP2C8 (Homo sapiens, UniProt P10632)
Construct: pre-incubation of the human liver microsomes with the test compound; tissue Corning; host or cells: human liver microsomes
Sequence (P10632 1-490): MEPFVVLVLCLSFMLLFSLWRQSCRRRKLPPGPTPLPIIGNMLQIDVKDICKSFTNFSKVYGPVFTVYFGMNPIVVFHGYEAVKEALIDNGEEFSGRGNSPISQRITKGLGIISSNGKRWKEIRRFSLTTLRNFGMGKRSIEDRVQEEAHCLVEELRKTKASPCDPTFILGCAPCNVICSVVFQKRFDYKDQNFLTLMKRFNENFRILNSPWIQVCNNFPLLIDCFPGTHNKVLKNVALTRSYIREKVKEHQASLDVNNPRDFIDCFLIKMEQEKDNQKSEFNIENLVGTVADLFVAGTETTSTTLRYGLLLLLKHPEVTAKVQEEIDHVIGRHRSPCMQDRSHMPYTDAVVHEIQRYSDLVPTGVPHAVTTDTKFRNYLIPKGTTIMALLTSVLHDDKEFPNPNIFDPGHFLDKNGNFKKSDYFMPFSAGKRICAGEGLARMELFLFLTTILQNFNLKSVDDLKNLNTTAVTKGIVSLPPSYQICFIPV
Experiment: CYP inhibition / time-dependent inhibition, CYP2C8_Amodiaquine
Type: in vitro ADME
Settings: role: inhibitor; (−)NADPH pre-incubation; substrate amodiaquine; read-out: IC50 (−)NADPH CYP2C8_Amodiaquine
Property measured: IC50

Bench note: what IC50 did O=C(Cc1cncc(-n2cc(Cl)c3cc(Cl)cc(Cl)c32)c1)N[C@@H]1COC[C@H]1O [Compound 661] show? 14.3 µM

* * *

Test: Kinetic solubility
Type: physicochemical
Conditions: hhbs buffer, aqueous buffer, Table 1; read-out: Kinetic Sol.
Description: Solubility measurements were performed prior to each in vitro assay to ensure accurate dose response and reproducibility. Briefly, each compound was dissolved to 60 mM in DMSO and calibration curve was performed from 1.5-200 μM using absorbance spectra analysis and determination of λmax. Calibration curve served as the readout for all following assays. […]
Property measured: solubility kinetic (µM)
Answers are plain numbers, in µM.

// known answers, use as guide
>>> print(df.to_string())
                    structure_smiles_string   property_measured  measured_number
0  COC[C@@H](CO)NC(=O)Cc1cc(Sc2c(Cl)cc(F)cc2C(C)C)ccc1F  solubility kinetic             26.7
1  O=C(Cc1cncc(-n2cc(Cl)c3cc(Cl)cc(Cl)c32)c1)N[C@@H]1COC[C@@H]1O  solubility kinetic                6
2  CC(C)c1cc(Cl)cc(Cl)c1C(=O)c1ccc(F)c(CC(=O)NCC(C)(C)O)c1  solubility kinetic               66

Need solubility kinetic, item O=C(Cc1cncc(-n2cc(Cl)c3cc(Cl)cc(Cl)c32)c1)N[C@H]1COC[C@@H]1O 26

* * *

molecular target: hKv7.2/3 (Homo sapiens, UniProt O43525+O43526); construct: host or cells: CHO; assay: Kv7.2/7.3 HCS, FLIPR potassium (thallium) assay, CHO/hKv7.2/3; type: cell-based
Property measured: Kv7.2/3 activation (words)

                                   compound  result
0  CC(C)c1cc(Cl)cc(Cl)c1C(O)c1ccc(F)c(CC(=O)NCC2(O)CCC2)c1 (single isomer, unassigned) [Compound 533p1]   lower

* * *

target: hERG (Homo sapiens); assay: hERG HCS, FLIPR potassium assay, CHO/hERG; type: cell-based; set-up: host or cells: CHO; conditions: human, cho/herg cells, Thallium ions (Tl+) fluorescence; read-out: hERG EC50
Sequence (Q12809 whole entry): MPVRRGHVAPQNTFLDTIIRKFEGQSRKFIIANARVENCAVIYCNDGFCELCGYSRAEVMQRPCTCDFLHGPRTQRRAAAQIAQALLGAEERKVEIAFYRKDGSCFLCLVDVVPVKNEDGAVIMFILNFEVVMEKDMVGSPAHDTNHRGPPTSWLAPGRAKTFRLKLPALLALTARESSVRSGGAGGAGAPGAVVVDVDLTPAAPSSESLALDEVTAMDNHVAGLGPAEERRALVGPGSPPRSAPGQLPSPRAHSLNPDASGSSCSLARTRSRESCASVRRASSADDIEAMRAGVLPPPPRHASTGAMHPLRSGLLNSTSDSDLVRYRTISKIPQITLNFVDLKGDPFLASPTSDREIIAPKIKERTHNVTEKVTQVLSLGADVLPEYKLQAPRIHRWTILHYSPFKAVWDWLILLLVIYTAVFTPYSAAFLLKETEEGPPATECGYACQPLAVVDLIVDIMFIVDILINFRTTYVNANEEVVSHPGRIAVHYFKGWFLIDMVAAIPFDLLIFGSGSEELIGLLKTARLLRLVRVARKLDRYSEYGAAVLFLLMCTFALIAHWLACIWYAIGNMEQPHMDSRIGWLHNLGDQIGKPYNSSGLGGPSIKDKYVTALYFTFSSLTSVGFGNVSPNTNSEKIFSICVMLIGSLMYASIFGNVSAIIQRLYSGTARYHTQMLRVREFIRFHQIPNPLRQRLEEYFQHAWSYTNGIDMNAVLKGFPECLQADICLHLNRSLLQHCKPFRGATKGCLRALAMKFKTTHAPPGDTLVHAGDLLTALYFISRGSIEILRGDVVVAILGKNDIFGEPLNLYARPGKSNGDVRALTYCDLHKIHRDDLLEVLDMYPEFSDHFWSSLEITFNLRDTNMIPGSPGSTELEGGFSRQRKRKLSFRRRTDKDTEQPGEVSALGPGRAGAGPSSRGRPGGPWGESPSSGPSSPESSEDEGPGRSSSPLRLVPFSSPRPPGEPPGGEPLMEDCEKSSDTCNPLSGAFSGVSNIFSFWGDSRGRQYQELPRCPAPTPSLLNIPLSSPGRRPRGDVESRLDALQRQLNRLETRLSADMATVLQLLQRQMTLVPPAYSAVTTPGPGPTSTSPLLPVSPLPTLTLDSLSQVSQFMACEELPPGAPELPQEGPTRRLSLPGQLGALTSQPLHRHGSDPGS
Property measured: pIC50
One number for each entry, as −log10 of the molar value.

Please report the recorded pIC50 for O=C(Cc1nccc(-n2cc(Cl)c3cc(Cl)cc(Cl)c32)n1)NC1COCC1O (stereo not shown) [Compound 760] . 4.48

* * *

Test system: rat DRG neurons
Experiment: Rat DRG neurons, capsaicin-evoked action potential firing
Assay type: cell-based
Conditions: capsaicin 1 μM; listed as BS661; read-out: Rat DRGs, CAP IC50
Procedure: rDRGs isolation and primary cell culture: Briefly, rat DRGs from all spinal levels were carefully removed and collected in HBSS on ices, connective tissue of the epineurium surrounding the ganglion was removed and cells were dissociated using Collagenase-II and trypsin dissociation solutions. […] To assess the potency of compounds using DRG neurons, the inhibitory potency for CAP-evoked action potential (AP) trains was measured. […]
Property measured: pIC50
Answers are plain numbers, as −log10 of the molar value.

Look up pIC50 for this compound: O=C(Cc1cncc(-n2cc(Cl)c3cc(Cl)cc(Cl)c32)c1)N[C@@H]1COC[C@H]1O [Compound 661] 11.70

* * *

target: CYP2C19 (Homo sapiens, UniProt P33261); construct: pre-incubation of the human liver microsomes with the test compound; tissue Corning; host or cells: human liver microsomes; test: CYP inhibition / time-dependent inhibition, CYP2C19_S-Mephenytoin; type: in vitro ADME; conditions: role: inhibitor; (−)NADPH pre-incubation; substrate S-mephenytoin; read-out: IC50 (−)NADPH CYP2C19_S-Mephenytoin
Sequence (P33261 whole entry): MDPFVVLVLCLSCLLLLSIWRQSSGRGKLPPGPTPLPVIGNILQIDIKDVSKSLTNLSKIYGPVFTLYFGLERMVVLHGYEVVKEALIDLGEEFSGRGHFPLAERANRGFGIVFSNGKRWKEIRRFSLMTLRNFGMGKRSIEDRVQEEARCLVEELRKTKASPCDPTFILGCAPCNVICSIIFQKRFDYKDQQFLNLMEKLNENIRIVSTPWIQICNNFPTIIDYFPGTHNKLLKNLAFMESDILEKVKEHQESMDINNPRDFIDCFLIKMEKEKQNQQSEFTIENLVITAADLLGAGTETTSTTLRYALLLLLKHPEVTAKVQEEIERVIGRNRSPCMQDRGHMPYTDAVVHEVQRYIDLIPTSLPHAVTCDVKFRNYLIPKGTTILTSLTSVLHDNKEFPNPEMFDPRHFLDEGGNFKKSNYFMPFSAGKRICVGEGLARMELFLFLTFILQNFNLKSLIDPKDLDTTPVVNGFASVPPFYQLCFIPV
Property measured: pIC50
One number for each entry, as −log10 of the molar value.

Fill in: pIC50 of O=C(Cc1cncc(-n2cc(Cl)c3cc(Cl)cc(Cl)c32)c1)N[C@@H]1COC[C@H]1O is ___ 4.81

* * *

Assay: Human liver microsome metabolic stability
Format: in vitro ADME
Conditions: human, liver microsomes, human liver microsomes; read-out: HLM T1/2
Procedure: Liver microsomes which are subcellular particles derived from endoplasmic reticulum of hepatic cells were used for evaluating the tested compounds. These particles are rich in drug metabolizing enzymes, including the cytochrome p-450 family. Liver microsomes are a recommended test system for various in vitro drug metabolism and pharmacokinetics (DMPK) studies. […] Liver Microsome Metabolic Stability Assay (NADPH): The liver microsome stability assay was evaluated through pre-incubation with HLMs. […]
Please go through the items and note down their half-life at 1 µM.

Example entries begin here.
>>> df
                                   molecule   result
0  O=C(Cc1cc(-n2cc(Cl)c3cc(Cl)cc(Cl)c32)ncn1)N[C@@H]1COC[C@H]1O   52 min
1  CC(C)c1cc(Cl)cc(Cl)c1Nc1ccc(F)c(CC(=O)NCC(C)(C)O)c1 [NH91, reference compound]  7.4 min

Name the reported half-life at 1 µM value associated with the molecule O=C(Cc1cncc(-n2cc(C3CC3)c3cc(Cl)cc(Cl)c32)c1)N[C@@H]1COC[C@H]1O 26.7 min

* * *

molecular target: CYP1A2 (Homo sapiens, UniProt P05177); construct: pre-incubation of the human liver microsomes with the test compound; tissue Corning; host or cells: human liver microsomes; experiment: CYP inhibition / time-dependent inhibition, CYP1A2_Phenacetin; assay type: in vitro ADME; conditions: role: inhibitor; Table 9; read-out: CYP inhibition IC50 CYP1A2
Sequence (P05177 whole entry): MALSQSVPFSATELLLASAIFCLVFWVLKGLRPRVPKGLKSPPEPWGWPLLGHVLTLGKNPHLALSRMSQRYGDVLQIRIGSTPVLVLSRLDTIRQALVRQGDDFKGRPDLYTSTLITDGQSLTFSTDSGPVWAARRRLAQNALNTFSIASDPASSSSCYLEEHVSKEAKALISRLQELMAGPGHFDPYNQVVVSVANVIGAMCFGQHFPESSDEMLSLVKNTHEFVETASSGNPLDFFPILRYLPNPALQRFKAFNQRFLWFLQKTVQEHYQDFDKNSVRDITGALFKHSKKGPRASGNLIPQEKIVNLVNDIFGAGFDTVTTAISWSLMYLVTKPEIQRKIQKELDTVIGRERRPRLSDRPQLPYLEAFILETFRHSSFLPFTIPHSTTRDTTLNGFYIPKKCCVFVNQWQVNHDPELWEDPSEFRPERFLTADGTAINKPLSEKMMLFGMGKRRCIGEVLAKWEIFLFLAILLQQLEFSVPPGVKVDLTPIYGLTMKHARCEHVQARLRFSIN
pIC50: −log10 of the molar value.
Property measured: pIC50

Look up pIC50: O=C(Cc1nccc(-n2cc(Cl)c3cc(Cl)cc(Cl)c32)n1)NC1COCC1O (stereo not shown) < 4.30

* * *

Hi there, I'd appreciate the recorded pIC50 for every entry that follows.
biological target: hTRPV1 (Homo sapiens, UniProt Q8NER1); construct: CDS of NM_080704.4, inserted into the multiple cloning site of pcDNA3.1(+); host or cells: CHO/hKv7.2/3; assay: TRPV1 HCS, Fluo-8 calcium flux, capsaicin activation, CHO cells expressing hTRPV1; type: cell-based; conditions: cells expressing TRPV1; read-out: TRPV1 IC50
Sequence (Q8NER1 whole entry): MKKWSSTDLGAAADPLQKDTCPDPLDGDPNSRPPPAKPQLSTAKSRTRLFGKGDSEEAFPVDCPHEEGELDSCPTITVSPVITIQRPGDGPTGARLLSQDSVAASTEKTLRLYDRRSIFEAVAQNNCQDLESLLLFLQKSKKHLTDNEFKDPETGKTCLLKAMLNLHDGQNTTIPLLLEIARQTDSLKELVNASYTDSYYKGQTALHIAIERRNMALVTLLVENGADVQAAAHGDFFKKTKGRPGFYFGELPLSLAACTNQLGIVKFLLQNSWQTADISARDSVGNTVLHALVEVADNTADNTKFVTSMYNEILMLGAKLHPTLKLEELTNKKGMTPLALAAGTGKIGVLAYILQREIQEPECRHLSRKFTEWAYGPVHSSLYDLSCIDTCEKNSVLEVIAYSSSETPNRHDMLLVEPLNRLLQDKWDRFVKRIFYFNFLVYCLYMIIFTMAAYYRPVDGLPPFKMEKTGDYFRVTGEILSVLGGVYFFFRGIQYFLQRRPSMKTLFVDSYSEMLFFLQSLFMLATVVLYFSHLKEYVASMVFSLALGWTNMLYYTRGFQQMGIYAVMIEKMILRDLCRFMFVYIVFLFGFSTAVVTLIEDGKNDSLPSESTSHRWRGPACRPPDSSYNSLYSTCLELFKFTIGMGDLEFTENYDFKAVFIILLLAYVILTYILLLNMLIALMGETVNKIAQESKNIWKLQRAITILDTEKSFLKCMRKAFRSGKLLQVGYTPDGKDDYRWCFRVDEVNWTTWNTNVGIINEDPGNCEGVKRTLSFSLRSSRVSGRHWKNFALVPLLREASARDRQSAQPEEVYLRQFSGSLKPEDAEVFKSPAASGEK
Give bare numbers, as −log10 of the molar value.

Below: 3 molecules and their reported pIC50.
In [3]: df
Out[3]:
                                   molecule  measured_number
0  CC(C)c1cc(Cl)cc(Cl)c1C(=O)c1ccc(F)c(CC(=O)NCC(C)(C)O)c1             5.10
1  Cc1cn(-c2ccc(F)c(CC(=O)NCCOCCOCC(C)(C)O)c2)c2c(Cl)cc(Cl)cc12             5.49
2  O=C(Cc1cncc(-n2cc(Cl)c3cc(Cl)cc(Cl)c32)c1)N[C@@H]1COC[C@H]1O             4.71

Working through the 5 molecules below one at a time, give pIC50 for each.
1. O=C(Cc1cncc(-n2cc(Cl)c3cc(Cl)cc(Cl)c32)c1)NCCO
2. COC[C@@H](CO)NC(=O)Cc1cc(Sc2c(Cl)cc(F)cc2C(C)C)ccc1F
3. Cc1cn(-c2ccc(F)c(CC(=O)NCC(C)(C)O)c2)c2c(Cl)cc(Cl)cc12
4. O=C(Cc1cc(-n2cc(Cl)c3cc(Cl)cc(Cl)c32)ccc1F)NCCO
5. CC(C)c1cc(Cl)cc(Cl)c1C(O)c1ccc(F)c(CC(=O)NCC(C)(C)O)c1 (centres unmarked)

[5.48, 5.11, 5.68, 5.72, 4.58]
